observable: Ki (nM)
Dear colleague, please return just the value in nM, with no unit written.

*Q* Observed Ki on UniProt Q16790 for NOS(=O)(=O)NC1C=C[C@H](O)[C@@H](CO)O1 (mixture of isomers) , please.
*A* 85

*Q* State its Ki on UniProt Q16790: NOS(=O)(=O)NC1C=C[C@@H](O)CO1 (mixture of isomers)
*A* 74

*Q* Form: Entry = NS(=O)(=O)ONC(=O)OCc1ccccc1 | System = UniProt Q16790 | Ki = ____
*A* 57

*Q* Recall the recorded Ki for CC(=O)O[C@@H]1C=CC(NS(=O)(=O)ON)OC1 (mixture of isomers) with UniProt Q16790 and state it.
*A* 86

*Q* Missing value: Ki, UniProt Q16790, entry NOS(=O)(=O)NC1C=C[C@H](O)CO1 (mixture of isomers) . Fill in?
*A* 91

*Q* Checklist item: Ki tested on UniProt Q16790, entry CC(=O)OC[C@H]1OC(NS(=O)(=O)ON)C=C[C@@H]1OC(C)=O (mixture of isomers) , value?
*A* 90

*Q* UniProt Q16790 / Ki / CC(=O)O[C@H]1C=CC(NS(=O)(=O)ON)OC1 (mixture of isomers) : value?
*A* 75

*Q* Look up Ki with UniProt Q16790 for this compound: NOS(=O)(=O)NC(=O)OCc1ccccc1
*A* 77
